B1: KRT13 (parent)
chain: KTIEELRDKILTATIENNRVILEI

# Variants of: B1
# run description: protein stability index of a GFP-peptide fusion (GPS, HEK-293T) (PSI 1-6); higher = more stable;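 note: lentivirally expressed fusions sorted by FACS into six bins by GFP to DsRed ratio, PSI derived from sequencing read proportions per bin multiplied by bin number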
# conditions: c terminus: a fixed tail appended
For each record, write down the corresponding protein stability index.
Could you respond with only the numeric value?

## Task Query (variant): E4V ; field requested: protein stability index
## Result 2.4

## Task Query (variant): L22Q ; field requested: protein stability index
## Result 2.88

## Task Query (variant): E5G ; field requested: protein stability index
## Result 2.46

## Task Query (variant): L11G ; field requested: protein stability index
## Result 1.87

## Task Query (variant): D8I ; field requested: protein stability index
## Result 1.64

## Task Query (variant): D8A ; field requested: protein stability index
## Result 2.49

## Task Query (variant): I3N ; field requested: protein stability index
## Result 2.43

Hello, the source for this data is the supplement of paper PMC10567573, in case you need it.
